# MEASUREMENT PROTOCOL: in vivo
# PARTICULARS: mouse
MEASURED QUANTITY: half-life
Put your answer as a value accompanied by its unit after it.

Which half-life is listed for `N[C@@H](CO)C(=O)O` ? 1.21 h

* * *

# MEASUREMENT PROTOCOL: in vivo
# PARTICULARS: mouse
MEASURED QUANTITY: Cmax (µg/mL)
Answer format: numeric, µg/mL implied, no suffix.

What measured Cmax goes with `N[C@@H](CO)C(=O)O` ? 67.5

* * *

# MEASUREMENT PROTOCOL: Mouse PK experiment (serum levels by LC-MS/MS)
# PARTICULARS: mouse, in vivo
MEASURED QUANTITY: Tmax

Value lookup for Tmax; key = Cl.N[C@@H](CO)C(=O)O [L-Serine Hydrochloride (Example 3), L-serine hydrochloride] 37.2 min

* * *

# MEASUREMENT PROTOCOL: in vivo
# PARTICULARS: mouse
MEASURED QUANTITY: Tmax (min)
Numbers only; they are read as min.

Please report the recorded Tmax for `N[C@@H](CO)C(=O)O` . 15
